This section presents binders with their documented In vitro activity compared to native peptide (%) vs GLP-1 values.
target: human GLP-1 receptor (human, UniProt P43220 24-463); experiment: cell-based or functional assay
Bridge positions count the residues as written; N and C are the ends. Square brackets hold non-standard residues; d marks the D form. Ends that are not written are not given here. Aib = CC(C)(N)C(=O)O
Give the quantity in %, number only.

See these solved cases before continuing.
binder="H[Aib]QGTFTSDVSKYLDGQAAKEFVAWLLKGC [Triple agonist of SEQ ID NO: 7]" recorded_number=13.7
binder="H[Aib]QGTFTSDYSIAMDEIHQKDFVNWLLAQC (bridge 16-20) [Triple agonist of SEQ ID NO: 55]" recorded_number=27.1

Consider the binder H[Aib]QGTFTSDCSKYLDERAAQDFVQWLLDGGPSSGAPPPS [Triple agonist of SEQ ID NO: 25] and give its measured In vitro activity compared to native peptide (%) vs GLP-1. 82.6
